Reference for the values: ChEMBL document CHEMBL1154643

Target: Cyclin-dependent kinase 2/cyclin A (Homo sapiens, UniProt P24941)
Assay: Inhibition of recombinant CDK2/cyclin A
pIC50: −log10 of the molar value.
measurement.name: pIC50

A selection of reference data follows.
{"compound": "CC(C)n1cnc2c(NCc3ccc(-c4ccccc4)cc3)nc(N3CCC(N)C3)nc21 (stereo not drawn)", "test.target": "Cyclin-dependent kinase 2/cyclin A (Homo sapiens, UniProt P24941)", "pIC50": 5.52}
{"compound": "CC(C)n1cnc2c(NCc3ccc(-c4ccccc4)cc3)nc(N[C@H]3CC[C@H](O)CC3)nc21", "test.target": "Cyclin-dependent kinase 2/cyclin A (Homo sapiens, UniProt P24941)", "pIC50": 6.40}
{"compound": "CC(C)n1cnc2c(NCCc3ccc(-c4ccccc4)cc3)nc(N[C@H]3CC[C@H](N)CC3)nc21", "test.target": "Cyclin-dependent kinase 2/cyclin A (Homo sapiens, UniProt P24941)", "pIC50": 6.00}
{"compound": "CC(C)n1cnc2c(NCc3ccc(-c4ccccc4)cc3)nc(N3CCC(CN)CC3)nc21", "test.target": "Cyclin-dependent kinase 2/cyclin A (Homo sapiens, UniProt P24941)", "pIC50": 5.40}
{"compound": "CC(C)n1cnc2c(NCc3ccc(-c4ccccc4)cc3)nc(NCCCN)nc21", "test.target": "Cyclin-dependent kinase 2/cyclin A (Homo sapiens, UniProt P24941)", "pIC50": 5.52}

I: CCC(=O)N[C@H]1CC[C@H](Nc2nc(NCc3ccc(-c4ccccc4)cc3)c3ncn(C(C)C)c3n2)CC1
II: CC(C)n1cnc2c(NCc3ccc(-c4ccccc4)cc3)nc(NC[C@H](C)N)nc21
Look at I and II . Which one has the lower recorded pIC50 number? Identify your selection by its label.
II
(II: 5.70, I: 6.30)

A: CC(=O)N[C@H]1CC[C@H](Nc2nc(NCc3ccc(-c4ccccc4)cc3)c3ncn(C(C)C)c3n2)CC1
B: CC(C)n1cnc2c(NCc3ccc(-c4ccccc4)cc3)nc(NCCCCN)nc21
Look at A and B . Which one has the lower recorded pIC50 number? Identify your selection by its label.
B
(B: 5.52, A: 6.30)

I: CCCN[C@H]1CC[C@H](Nc2nc(NCc3ccc(-c4ccccc4)cc3)c3ncn(C(C)C)c3n2)CC1
II: CC(C)n1cnc2c(NCc3ccc(-c4ccccc4)cc3)nc(N[C@@H]3CCCC[C@H]3N)nc21
III: CCN(CC)[C@H]1CC[C@H](Nc2nc(NCc3ccc(-c4ccccc4)cc3)c3ncn(C(C)C)c3n2)CC1
IV: CC(C)n1cnc2c(NCc3ccc(-c4ccccc4Cl)cc3)nc(N[C@H]3CC[C@H](N)CC3)nc21
Falling order of pIC50, please. Answer format: the labels, in the requested order.
I, IV, II, III
(I: 6.30, IV: 6.00, II: 5.70, III: 5.22)

P: Cc1ccc(-c2ccc(CNc3nc(N[C@H]4CC[C@H](N)CC4)nc4c3ncn4C(C)C)cc2)cc1C
Q: CC(C)n1cnc2c(NCc3ccc(-c4ccccc4)cc3)nc(NC3CCCC(N)C3)nc21 (stereo not drawn)
Exercise: compare P and Q ; which one has the greater pIC50? Identify your selection by its label.
P
(P: 6.30, Q: 6.00)
